# SYSTEM_NAME: Caspase-1 (Homo sapiens)
# METHOD_SUMMARY: Inhibition of human recombinant caspase 1 assessed as decrease in AMC release using Ac-Tyr-Val-Ala-Asp-AMC as substrate preincubated with enzyme for 10 mins prior to substrate addition measured after 10 mins by fluorescence microplate analysis
pIC50: −log10 of the molar value.

| COMPOUND | SIGN_QUALIFIER | pIC50 |
| --- | --- | --- |
| CCCCN1C(=O)C(=O)c2cc(S(=O)(=O)N3CCC[C@H]3COCC)ccc21 | = | 4.74 |
| CCOC[C@@H]1CCCN1S(=O)(=O)c1ccc2c(c1)C(=O)C(=O)N2 | < | 3.30 |
| COCCCC1CCCN1S(=O)(=O)c1ccc2c(c1)C(=O)C(=O)N2CCCCF (racemic) | < | 3.30 |
| CCOC[C@@H]1CCCN1S(=O)(=O)c1ccc2c(c1)C(=O)C(=O)N2CCCCF | < | 3.30 |
| CCCCN1C(=O)C(=O)c2cc(S(=O)(=O)N3CCC[C@H]3CCOC)ccc21 | = | 4.81 |
| CCCCN1C(=O)C(=O)c2cc(S(=O)(=O)N3CCCC3CCCOC)ccc21 (racemic) | < | 3.30 |
| O=C1C(=O)N(CCCCF)c2ccc(S(=O)(=O)N3CCC[C@H]3COCCF)cc21 | = | 4.34 |
| COCCCC1CCCN1S(=O)(=O)c1ccc2c(c1)C(=O)C(=O)N2 (racemic) | = | 4.94 |
| CCCCN1C(=O)C(=O)c2cc(S(=O)(=O)N3CCC[C@H]3COCC(F)(F)F)ccc21 | = | 4.59 |
| O=C1C(=O)N(CCCCF)c2ccc(S(=O)(=O)N3CCC[C@H]3COCC(F)(F)F)cc21 | = | 4.51 |

###

# pIC50 listing for each entry below
# SYSTEM_NAME: Caspase-1 (Homo sapiens, UniProt P29466)
# Sequence (P29466 120-297 limits assumed): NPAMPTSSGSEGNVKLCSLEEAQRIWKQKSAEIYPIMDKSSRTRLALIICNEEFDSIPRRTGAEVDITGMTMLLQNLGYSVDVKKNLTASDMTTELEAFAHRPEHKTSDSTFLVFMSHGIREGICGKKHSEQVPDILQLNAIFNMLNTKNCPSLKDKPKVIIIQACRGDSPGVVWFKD
# Sequence (P29466 317-404 limits assumed): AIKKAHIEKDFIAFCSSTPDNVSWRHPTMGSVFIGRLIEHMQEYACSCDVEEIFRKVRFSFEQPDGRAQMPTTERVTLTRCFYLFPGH
# METHOD_SUMMARY: Inhibition of human recombinant caspase 1 assessed as decrease in AMC release using Ac-Tyr-Val-Ala-Asp-AMC as substrate preincubated with enzyme for 10 mins prior to substrate addition measured after 10 mins by fluorescence microplate analysis
pIC50: −log10 of the molar value.
ENDPOINT_NAME: pIC50

| COMPOUND_STRUCTURE | RESULT |
| --- | --- |
| O=C1Nc2ccc(S(=O)(=O)N3CCC[C@H]3COCC(F)(F)F)cc2C1=O | 4.83 |
| CCCCN1C(=O)C(=O)c2cc(S(=O)(=O)N3CCC[C@H]3COCCF)ccc21 | 4.61 |
| COCC[C@@H]1CCCN1S(=O)(=O)c1ccc2c(c1)C(=O)C(=O)N2 | 4.92 |
| O=C1Nc2ccc(S(=O)(=O)N3CCC[C@H]3COCCF)cc2C1=O | 4.74 |
| COCC[C@@H]1CCCN1S(=O)(=O)c1ccc2c(c1)C(=O)C(=O)N2CCCCF | 5.13 |

###

# SYSTEM_NAME: Caspase-7 (Homo sapiens)
# Sequence (P55210 24-198 limits assumed): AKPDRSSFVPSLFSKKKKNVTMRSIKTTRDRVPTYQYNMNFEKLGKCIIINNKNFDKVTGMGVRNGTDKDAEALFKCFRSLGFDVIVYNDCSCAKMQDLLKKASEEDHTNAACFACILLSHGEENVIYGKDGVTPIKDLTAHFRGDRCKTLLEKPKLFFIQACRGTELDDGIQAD
# Sequence (P55210 207-303 limits assumed): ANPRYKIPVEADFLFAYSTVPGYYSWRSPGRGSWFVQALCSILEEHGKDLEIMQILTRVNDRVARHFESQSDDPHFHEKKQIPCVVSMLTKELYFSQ
# METHOD_SUMMARY: Inhibition of human recombinant caspase 7 assessed as decrease in AMC release using Ac-Asp-Glu-Val-Asp-AMC as substrate preincubated with enzyme for 10 mins prior to substrate addition measured after 10 mins by fluorescence microplate analysis

| COMPOUND | IC50 [nM] |
| --- | --- |
| CCOC[C@@H]1CCCN1S(=O)(=O)c1ccc2c(c1)C(=O)C(=O)N2CCCCF | 218 |
| COCC[C@@H]1CCCN1S(=O)(=O)c1ccc2c(c1)C(=O)C(=O)N2 | 540 |
| CCCCN1C(=O)C(=O)c2cc(S(=O)(=O)N3CCC[C@H]3COCC(F)(F)F)ccc21 | 7.47 |
| O=C1Nc2ccc(S(=O)(=O)N3CCC[C@H]3COCC(F)(F)F)cc2C1=O | 1420 |
| CCCCN1C(=O)C(=O)c2cc(S(=O)(=O)N3CCC[C@H]3COCC)ccc21 | 64.6 |
| O=C1Nc2ccc(S(=O)(=O)N3CCC[C@H]3COCCF)cc2C1=O | 1330 |
| O=C1C(=O)N(CCCCF)c2ccc(S(=O)(=O)N3CCC[C@H]3COCC(F)(F)F)cc21 | 265 |
| O=C1C(=O)N(CCCCF)c2ccc(S(=O)(=O)N3CCC[C@H]3COCCF)cc21 | 9.68 |
| COCC[C@@H]1CCCN1S(=O)(=O)c1ccc2c(c1)C(=O)C(=O)N2CCCCF | 12.3 |
| CCCCN1C(=O)C(=O)c2cc(S(=O)(=O)N3CCC[C@H]3COCCF)ccc21 | 39.6 |
| COCCCC1CCCN1S(=O)(=O)c1ccc2c(c1)C(=O)C(=O)N2 (racemic) | 125 |
| COCCCC1CCCN1S(=O)(=O)c1ccc2c(c1)C(=O)C(=O)N2CCCCF (racemic) | 33.7 |
| CCCCN1C(=O)C(=O)c2cc(S(=O)(=O)N3CCC[C@H]3CCOC)ccc21 | 24.6 |
| CCCCN1C(=O)C(=O)c2cc(S(=O)(=O)N3CCCC3CCCOC)ccc21 (racemic) | 515 |
| CCOC[C@@H]1CCCN1S(=O)(=O)c1ccc2c(c1)C(=O)C(=O)N2 | 13.2 |

###

# SYSTEM_NAME: Caspase-3 (Homo sapiens, UniProt P42574)
# Sequence (P42574 29-175 limits assumed): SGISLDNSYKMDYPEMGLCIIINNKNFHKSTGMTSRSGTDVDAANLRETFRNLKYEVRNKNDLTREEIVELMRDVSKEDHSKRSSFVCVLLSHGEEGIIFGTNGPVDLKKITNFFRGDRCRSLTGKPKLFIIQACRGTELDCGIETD
# Sequence (P42574 176-277 limits assumed): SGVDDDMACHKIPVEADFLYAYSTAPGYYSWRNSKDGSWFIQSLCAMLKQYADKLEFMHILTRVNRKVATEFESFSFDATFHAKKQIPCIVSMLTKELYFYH
# METHOD_SUMMARY: Inhibition of human recombinant caspase 3 assessed as decrease in AMC release using Ac-Asp-Glu-Val-Asp-AMC as substrate preincubated with enzyme for 10 mins prior to substrate addition measured after 10 mins by fluorescence microplate analysis
ENDPOINT_NAME: log10(IC50) (log10 of the value in µM)

| COMPOUND | SYSTEM_NAME | log10(IC50) |
| --- | --- | --- |
| CCCCN1C(=O)C(=O)c2cc(S(=O)(=O)N3CCC[C@H]3COCC(F)(F)F)ccc21 | Caspase-3 (Homo sapiens, UniProt P42574) | -1.33 |
| COCCCC1CCCN1S(=O)(=O)c1ccc2c(c1)C(=O)C(=O)N2 (racemic) | Caspase-3 (Homo sapiens, UniProt P42574) | 0.20 |
| CCCCN1C(=O)C(=O)c2cc(S(=O)(=O)N3CCC[C@H]3COCC)ccc21 | Caspase-3 (Homo sapiens, UniProt P42574) | -1.59 |
| O=C1Nc2ccc(S(=O)(=O)N3CCC[C@H]3COCCF)cc2C1=O | Caspase-3 (Homo sapiens, UniProt P42574) | -0.46 |
| COCC[C@@H]1CCCN1S(=O)(=O)c1ccc2c(c1)C(=O)C(=O)N2CCCCF | Caspase-3 (Homo sapiens, UniProt P42574) | -1.03 |
| CCCCN1C(=O)C(=O)c2cc(S(=O)(=O)N3CCCC3CCCOC)ccc21 (racemic) | Caspase-3 (Homo sapiens, UniProt P42574) | -0.77 |
| CCCCN1C(=O)C(=O)c2cc(S(=O)(=O)N3CCC[C@H]3COCCF)ccc21 | Caspase-3 (Homo sapiens, UniProt P42574) | -2.32 |
| CCOC[C@@H]1CCCN1S(=O)(=O)c1ccc2c(c1)C(=O)C(=O)N2CCCCF | Caspase-3 (Homo sapiens, UniProt P42574) | -0.44 |
| COCC[C@@H]1CCCN1S(=O)(=O)c1ccc2c(c1)C(=O)C(=O)N2 | Caspase-3 (Homo sapiens, UniProt P42574) | -0.46 |
| COCCCC1CCCN1S(=O)(=O)c1ccc2c(c1)C(=O)C(=O)N2CCCCF (racemic) | Caspase-3 (Homo sapiens, UniProt P42574) | -0.74 |
| CCCCN1C(=O)C(=O)c2cc(S(=O)(=O)N3CCC[C@H]3CCOC)ccc21 | Caspase-3 (Homo sapiens, UniProt P42574) | -1.03 |
| O=C1Nc2ccc(S(=O)(=O)N3CCC[C@H]3COCC(F)(F)F)cc2C1=O | Caspase-3 (Homo sapiens, UniProt P42574) | 0.03 |
| O=C1C(=O)N(CCCCF)c2ccc(S(=O)(=O)N3CCC[C@H]3COCCF)cc21 | Caspase-3 (Homo sapiens, UniProt P42574) | -1.13 |
| CCOC[C@@H]1CCCN1S(=O)(=O)c1ccc2c(c1)C(=O)C(=O)N2 | Caspase-3 (Homo sapiens, UniProt P42574) | 0.05 |
| O=C1C(=O)N(CCCCF)c2ccc(S(=O)(=O)N3CCC[C@H]3COCC(F)(F)F)cc21 | Caspase-3 (Homo sapiens, UniProt P42574) | -0.83 |
